Data provenance is patent US20200399381A1.

Biological target: T1, human IFNAR-1 protein (form not stated) (human, UniProt P17181 28-436, limits assumed)
T1 construct: bispecific ELISA
T1 sequence (looked up): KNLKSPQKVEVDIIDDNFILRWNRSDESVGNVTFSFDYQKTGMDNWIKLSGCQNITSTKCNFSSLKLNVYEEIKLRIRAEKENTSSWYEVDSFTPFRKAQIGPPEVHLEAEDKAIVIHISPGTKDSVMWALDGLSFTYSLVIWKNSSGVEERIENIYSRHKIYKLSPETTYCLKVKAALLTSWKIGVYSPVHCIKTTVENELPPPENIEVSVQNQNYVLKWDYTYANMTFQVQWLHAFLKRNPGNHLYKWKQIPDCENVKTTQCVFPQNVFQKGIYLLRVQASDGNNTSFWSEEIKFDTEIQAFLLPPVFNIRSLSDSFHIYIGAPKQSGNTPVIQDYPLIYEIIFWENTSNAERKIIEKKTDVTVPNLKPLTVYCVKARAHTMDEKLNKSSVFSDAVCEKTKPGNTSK
Assay: affinity ranking of expressed humanized 8G11 IgGs (method not named)
RESULT_TYPE: pKd
Answers are plain numbers, as −log10 of the molar value.

Reference set (2 entries):
INSERT INTO measurements (binder, result_type, test_result) VALUES
  ('8G11 humanized VH4 + VL2 (antibody, V domains shown, Humanized IgG expressed in HEK293; also called VH4 + VL2 (8G11)) VH: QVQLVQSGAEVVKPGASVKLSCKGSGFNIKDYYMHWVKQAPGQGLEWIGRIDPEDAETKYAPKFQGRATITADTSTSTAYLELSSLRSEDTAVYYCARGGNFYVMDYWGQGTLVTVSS VL: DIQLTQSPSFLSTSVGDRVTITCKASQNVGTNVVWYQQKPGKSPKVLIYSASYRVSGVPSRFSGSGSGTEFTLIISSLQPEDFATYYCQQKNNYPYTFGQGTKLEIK', 'pKd', 9.48),
  ('8G11 humanized VH3 + VL1 (antibody, V domains shown, Humanized IgG expressed in HEK293; also called VH3 + VL1 (8G11)) VH: QVQLVQSGAEVVKPGASVKVSCKGSGFNIKDYYMHWVKQAPGQGLEWIGRIDPEDAETKYAPKFQGRVTITADTSTSTVYLELSSLRSEDTAVYYCARGGNFYVMDYWGQGTLVTVSS VL: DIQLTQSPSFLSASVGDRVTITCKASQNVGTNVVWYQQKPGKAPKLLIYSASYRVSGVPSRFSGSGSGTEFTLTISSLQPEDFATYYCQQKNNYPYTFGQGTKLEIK', 'pKd', 9.38);

pKd recorded for this binder, 8G11 humanized VH2 + VL4 (antibody, V domains shown, Humanized IgG expressed in HEK293; also called VH2 + VL4 (8G11)) VH: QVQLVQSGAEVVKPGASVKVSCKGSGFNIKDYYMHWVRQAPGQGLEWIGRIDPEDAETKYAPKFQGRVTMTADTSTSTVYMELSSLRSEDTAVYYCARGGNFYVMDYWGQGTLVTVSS VL: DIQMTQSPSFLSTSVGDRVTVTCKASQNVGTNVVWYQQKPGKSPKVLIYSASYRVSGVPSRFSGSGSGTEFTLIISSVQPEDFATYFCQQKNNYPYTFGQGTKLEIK , is 9.41
